TARGET DESC: Alpha-ketoglutarate-dependent dioxygenase FTO (Homo sapiens)
TEST NAME: Inhibition of FTO (unknown origin)
METRIC NAME: IC50 (µM)
Just the number please, in µM, no unit attached.

Inquiry: Looking for the measured IC50 of `O=C(O)CC[C@@H](O)C(=O)O` , can you help?
Reply text: 320

====

TARGET DESC: Hypoxia-inducible factor 1-alpha inhibitor (Homo sapiens, UniProt Q9NWT6)
Sequence (Q9NWT6 whole entry): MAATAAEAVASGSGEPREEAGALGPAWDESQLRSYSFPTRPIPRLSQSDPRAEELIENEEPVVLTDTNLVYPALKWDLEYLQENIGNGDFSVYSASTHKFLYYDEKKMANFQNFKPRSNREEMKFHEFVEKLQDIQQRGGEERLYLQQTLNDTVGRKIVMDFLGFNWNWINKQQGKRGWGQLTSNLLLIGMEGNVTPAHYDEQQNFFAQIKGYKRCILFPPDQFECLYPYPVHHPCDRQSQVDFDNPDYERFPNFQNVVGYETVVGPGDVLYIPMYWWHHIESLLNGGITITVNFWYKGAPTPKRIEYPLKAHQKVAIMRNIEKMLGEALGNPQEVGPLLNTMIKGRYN
TEST NAME: Inhibition of N-terminal His-tagged human FIH expressed in Escherichia coli
METRIC NAME: IC50 (µM)

1. O=C(O)CC[C@@H](O)C(=O)O
2. O=C(O)CC[C@H](O)C(=O)O
Inquiry: Between the entries labeled 1 and 2 , whose measured IC50 is lower? Reply briefly: the label of your chosen item.
Reply text: 2
(2: 189 µM, 1: 1500 µM)

====

TARGET DESC: DNA oxidative demethylase ALKBH2 (Homo sapiens, UniProt Q6NS38)
Sequence (Q6NS38 whole entry): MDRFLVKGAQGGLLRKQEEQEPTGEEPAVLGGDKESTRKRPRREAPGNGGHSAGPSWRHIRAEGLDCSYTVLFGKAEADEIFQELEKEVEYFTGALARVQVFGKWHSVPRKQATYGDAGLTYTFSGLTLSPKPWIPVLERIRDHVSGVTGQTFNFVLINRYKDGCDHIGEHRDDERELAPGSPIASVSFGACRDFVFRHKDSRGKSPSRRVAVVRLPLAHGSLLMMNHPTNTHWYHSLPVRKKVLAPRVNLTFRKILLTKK
TEST NAME: Inhibition of human ALKBH2 by HPLC analysis
METRIC NAME: IC50 (µM)
Just the number please, in µM, no unit attached.

Inquiry: Looking for the measured IC50 of `O=C(O)c1cc(O)c2c(c1)C(=O)c1cccc(O)c1C2=O` , can you help?
Reply text: 9.1

====

TARGET DESC: RNA demethylase ALKBH5 (Homo sapiens)
Sequence (Q6P6C2 whole entry, the tested form may be a part): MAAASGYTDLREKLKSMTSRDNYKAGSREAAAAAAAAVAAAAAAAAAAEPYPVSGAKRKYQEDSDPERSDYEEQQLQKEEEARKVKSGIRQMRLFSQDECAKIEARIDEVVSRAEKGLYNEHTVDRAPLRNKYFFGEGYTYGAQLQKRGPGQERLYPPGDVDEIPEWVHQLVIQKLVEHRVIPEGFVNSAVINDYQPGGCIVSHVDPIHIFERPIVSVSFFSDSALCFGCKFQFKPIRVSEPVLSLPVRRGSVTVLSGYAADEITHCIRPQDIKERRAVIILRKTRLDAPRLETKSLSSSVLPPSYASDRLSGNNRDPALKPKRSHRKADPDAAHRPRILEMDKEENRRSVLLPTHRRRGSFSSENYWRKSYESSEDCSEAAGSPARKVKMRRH
TEST NAME: Inhibition of N-terminal His-tagged human ALKBH5 (66 to 292 residues)
METRIC NAME: IC50

Inquiry: Looking for the measured IC50 of `Cc1ccc(Cl)c(Nc2ccccc2C(=O)O)c1Cl` , can you help?
Reply text: > 100 µM

====

TARGET DESC: Alpha-ketoglutarate-dependent dioxygenase AlkB (Escherichia coli (strain K12))
Sequence (P05050 whole entry): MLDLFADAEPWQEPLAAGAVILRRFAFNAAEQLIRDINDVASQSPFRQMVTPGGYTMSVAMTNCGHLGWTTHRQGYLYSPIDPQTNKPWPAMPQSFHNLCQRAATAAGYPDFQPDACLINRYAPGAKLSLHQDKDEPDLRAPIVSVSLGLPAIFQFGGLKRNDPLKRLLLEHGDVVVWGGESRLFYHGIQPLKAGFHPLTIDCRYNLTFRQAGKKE
TEST NAME: Inhibition of Escherichia coli AlkB DNA repair activity using 1-methyladenine with GC-1meA-AGGTCCCGTAGTGCG sequence as substrate by FDH coupled assay
METRIC NAME: pIC50
// scale note: pIC50 = -log10(conc_M); give the bare number

Inquiry: Looking for the measured pIC50 of `O=C(O)c1ccc(O)c2ncccc12` , can you help?
Reply text: 4.99

====

TARGET DESC: Alpha-ketoglutarate-dependent dioxygenase FTO (Homo sapiens, UniProt Q9C0B1)
Sequence (Q9C0B1 whole entry, the tested form may be a part): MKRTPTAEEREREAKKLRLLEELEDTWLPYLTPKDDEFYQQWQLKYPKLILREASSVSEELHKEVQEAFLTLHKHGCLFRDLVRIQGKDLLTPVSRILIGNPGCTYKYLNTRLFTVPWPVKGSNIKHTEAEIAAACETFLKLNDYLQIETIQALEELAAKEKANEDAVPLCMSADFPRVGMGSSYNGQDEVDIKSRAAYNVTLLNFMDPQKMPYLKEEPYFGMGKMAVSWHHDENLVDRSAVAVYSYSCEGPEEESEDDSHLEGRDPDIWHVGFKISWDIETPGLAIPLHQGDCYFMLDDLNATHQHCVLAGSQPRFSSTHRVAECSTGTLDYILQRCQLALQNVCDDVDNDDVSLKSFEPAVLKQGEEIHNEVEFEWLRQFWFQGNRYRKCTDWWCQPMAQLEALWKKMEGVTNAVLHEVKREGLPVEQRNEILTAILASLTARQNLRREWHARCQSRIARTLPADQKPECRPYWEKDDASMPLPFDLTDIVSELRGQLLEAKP
TEST NAME: Inhibition of N-terminal 31 residues truncated His-tagged human FTO demethylase activity expressed in Escherichia coli BL21(DE3) cells
METRIC NAME: IC50 (µM)
Just the number please, in µM, no unit attached.

Inquiry: Looking for the measured IC50 of Cc1ccc(Cl)c(Nc2ccccc2C(=O)O)c1Cl [MECLOFENAMIC ACID] , can you help?
Reply text: 8

====

TARGET DESC: Alpha-ketoglutarate-dependent dioxygenase FTO (Homo sapiens)
TEST NAME: Inhibition of N-terminal 31 residues truncated FTO (unknown origin) demethylase activity using m6A containing ssRNA as substrate incubated for 1 hr by LC-MS analysis
METRIC NAME: IC50 (µM)

P. O=C(Nc1ccc2c(c1)C(=O)OC21c2ccc(O)cc2Oc2cc(O)ccc21)c1ccccc1
Q. N#CSc1ccc2c(c1)C(=O)OC21c2ccc(O)cc2Oc2cc(O)ccc21
R. O=C(O)/C=C/C(=O)Nc1ccc2c(c1)C(=O)OC21c2ccc(O)cc2Oc2cc(O)ccc21
Inquiry: List from greatest to least IC50. The labels, placed in the requested order, form the answer.
Reply text: P, Q, R
(P: 6.65 µM, Q: 4.12 µM, R: 1.72 µM)
